Values from PubChem BioAssay AID686970

assay: qHTS for induction of synthetic lethality in tumor cells producing 2HG: qHTS for the HT-1080-NT fibrosarcoma cell line; details: HT-1080-NT fibrosarcoma viability, CellTiter-Glo ATP luminescence, 48 h; series mostly up to 46.1 µM;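 also: NT is the 2HG producing partner of a matched IDH1 knockdown line; nearly all actives have a fitted effect of over 55% in size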
Among all 360,000 compounds or so, about 6,000 (1.7%) were called active. Another 8% or so got no clear call; they are omitted. Calls follow the shape of the dose curve; as a rule, active = well fitted cell-killing curve with a large enough effect; inconclusive = small, poorly fitted or top-dose-only effect, or effect the other way; inactive = flat fitted curve, though single readings scatter. Many of the other results were omitted from the sample, so actives are more common in it than they were.
Valid outcomes are listed here; reply with one: active, inactive

# compound, class.label
records = [
    ("Oc1c(C(c2ccccn2)N2CCOCC2)ccc2cccnc12 (centres undefined)", "active"),
    ("O=C(Nc1ccc(F)cc1)C(CCc1ccccc1)N1CCN(CC(=O)N2CCCC2)CC1 (centres undefined)", "inactive"),
    ("C#CCOCCOCCOCCNc1nc(N2CCN(C(=O)CCCCCCCCCCNC(=O)[C@H]([C@@H](C)CC)n3cc(CCCCN=C(N)N)nn3)CC2)nc(N2CCN(C(=O)CCCCCCCCCCNC(=O)[C@H](CO)n3cc(CCCSC)nn3)CC2)n1", "active"),
    ("COc1ccc(Br)c(Cn2c(C)c(C(=O)NCc3cccs3)sc2=O)c1", "inactive"),
    ("CC1Cc2[nH][nH]c(=O)c2C(C2CCCC2)O1 (centres undefined)", "inactive"),
]

q: Field: outcome | Entry: `COCCCn1c(=O)/c(=C/c2ccccc2OC(C)C)s/c1=C(\C#N)C(=O)Nc1ccc(C(=O)O)cc1`
a: inactive

q: Field: outcome | Entry: `CN1CCN(C(=O)c2ccc(NC(=O)c3ccc(Br)o3)cc2)CC1`
a: inactive

q: Field: outcome | Entry: Cc1cccc(C)c1NC(=O)N1CC(C)OC(C)C1 (centres undefined)
a: inactive

q: Field: outcome | Entry: COc1ccc(C(C(=O)NC2CCCCC2)N(C(=O)c2snc(C(N)=O)c2N)c2ccccc2OC)cc1 (centres undefined)
a: inactive

q: Field: outcome | Entry: `Fc1cccc(Cc2c(-c3ccc(Cl)cc3)nc3ccc(Cl)cn23)c1`
a: inactive

q: Field: outcome | Entry: `COc1cccc(/C=N/Nc2ncc(C(F)(F)F)cc2Cl)c1O`
a: active

q: Field: outcome | Entry: `CN1C[C@@H](CO)O[C@@H](n2cnc3c(N4CCN(CCO)CC4)ncnc32)C1`
a: inactive

q: Field: outcome | Entry: `Cc1cccc(C=CC(=O)c2ccc(Cl)cc2)c1`
a: inactive

q: Field: outcome | Entry: `COc1ccc(Br)cc1/C=N/Nc1ccc(Cl)c(C(=O)O)c1`
a: inactive

q: Field: outcome | Entry: `Cc1[nH]c(=O)c(C(=O)/C=C/c2ccccc2)c2c1CCCC2`
a: active

q: Field: outcome | Entry: `Cc1ccc([C@@H]2CC(=O)[C@@H]3CN(S(=O)(=O)c4ccc(C)cc4)[C@H](c4ccccc4F)C[C@@H]3N2S(=O)(=O)c2ccc(Cl)cc2)cc1`
a: inactive

q: Field: outcome | Entry: O=S1(=O)CC(N2CCN(Cc3ccccc3F)CC2)CN1Cc1cn(Cc2cccc(C(F)(F)F)c2)nn1 (centres undefined)
a: inactive
